Data provenance is patent US4857650A.

Target: human renin (Homo sapiens)
Sequence (P00797 67-406): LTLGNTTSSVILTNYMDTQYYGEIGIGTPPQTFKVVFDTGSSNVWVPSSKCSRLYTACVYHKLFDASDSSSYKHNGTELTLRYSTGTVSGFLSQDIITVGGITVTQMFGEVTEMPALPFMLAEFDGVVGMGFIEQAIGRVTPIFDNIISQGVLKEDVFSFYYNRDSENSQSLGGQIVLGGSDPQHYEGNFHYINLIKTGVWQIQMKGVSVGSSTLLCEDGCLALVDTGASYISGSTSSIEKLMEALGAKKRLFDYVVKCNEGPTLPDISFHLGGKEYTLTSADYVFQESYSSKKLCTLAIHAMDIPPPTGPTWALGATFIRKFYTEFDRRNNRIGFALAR
measured_parameter: IC50 (µM)
The response must be a number in µM with no trailing unit.

compound	unit_name	IC50
COC(=O)[C@@H]1CCCN1C(=O)CC(Cc1cccc2ccccc12)C(=O)N[C@@H](Cc1c[nH]cn1)C(=O)N[C@@H](CC(C)C)C(O)C(=O)OC(C)C (stereo partly drawn)	µM	0.052

Any idea what its IC50 is? The compound is COC(=O)C(O)[C@H](CC(C)C)NC(=O)[C@H](Cc1c[nH]cn1)NC(=O)C(CC(=O)N1CCC[C@H]1C(=O)OC)Cc1cccc2ccccc12 (stereo partly drawn) 0.04

Any idea what its IC50 is? The compound is CC(C)C[C@H](NC(=O)[C@H](Cc1c[nH]cn1)NC(=O)C(CC(=O)OC(C)C)Cc1cccc2ccccc12)C(O)C(=O)OC(C)C (mixture of isomers) 0.064

---

Molecular target: renin in human high renin plasma (Homo sapiens, UniProt P00797)
Construct: 500 μl of human high renin plasma
Sequence (P00797 67-406): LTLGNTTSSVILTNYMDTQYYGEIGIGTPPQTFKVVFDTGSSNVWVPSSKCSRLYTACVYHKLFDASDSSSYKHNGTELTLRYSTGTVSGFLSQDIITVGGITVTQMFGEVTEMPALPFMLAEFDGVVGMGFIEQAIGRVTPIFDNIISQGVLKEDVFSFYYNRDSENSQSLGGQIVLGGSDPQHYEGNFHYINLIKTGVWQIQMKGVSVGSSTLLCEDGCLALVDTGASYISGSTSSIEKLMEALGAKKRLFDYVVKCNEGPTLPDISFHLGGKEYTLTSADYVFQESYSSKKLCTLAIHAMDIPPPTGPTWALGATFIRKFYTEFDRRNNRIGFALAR
Test: Renin inhibitory effect in a human high renin plasma
Settings: pH 7.4, 30 minutes at 37° C., read-out: IC50 (molar concentration)
Readings of pIC50 for the listed molecules
Give only the number. pIC50 is defined as minus log10 of concentration in molar units.

As a guide, the following entries are already answered.
molecule	target_or_test_system	pIC50
COC(=O)[C@H](C)N(C)C(=O)CC(Cc1cccc2ccccc12)C(=O)N[C@@H](Cc1c[nH]cn1)C(=O)N[C@@H](CC(C)C)C(O)C(=O)OC(C)C (stereo partly drawn)	renin in human high renin plasma (Homo sapiens, UniProt P00797)	7.80
CC(C)C[C@H](NC(=O)[C@H](Cc1c[nH]cn1)NC(=O)C(CC(=O)N1CCC[C@H]1CO)Cc1cccc2ccccc12)C(O)C(=O)OC(C)C (stereo partly drawn)	renin in human high renin plasma (Homo sapiens, UniProt P00797)	6.85
COC(=O)[C@@H]1CCCN1C(=O)CC(Cc1cccc2ccccc12)C(=O)N[C@@H](Cc1c[nH]cn1)C(=O)N[C@@H](CC(C)C)C(O)C(=O)NCCC(C)C (stereo partly drawn)	renin in human high renin plasma (Homo sapiens, UniProt P00797)	6.54
CC(C)C[C@H](NC(=O)[C@H](Cc1c[nH]cn1)NC(=O)C(CC(N)=O)Cc1cccc2ccccc12)C(O)C(=O)OC(C)C (mixture of isomers)	renin in human high renin plasma (Homo sapiens, UniProt P00797)	6.31
CC(C)C[C@H](NC(=O)[C@H](Cc1c[nH]cn1)NC(=O)C(CC(=O)OC(C)C)Cc1cccc2ccccc12)C(O)C(=O)OC(C)C (mixture of isomers)	renin in human high renin plasma (Homo sapiens, UniProt P00797)	6.80

Recall the recorded pIC50 for COC(=O)CC(Cc1cccc2ccccc12)C(=O)N[C@@H](Cc1c[nH]cn1)C(=O)N[C@@H](CC(C)C)C(O)C(=O)OC(C)C (mixture of isomers) with renin in human high renin plasma (Homo sapiens, UniProt P00797) and state it. 7.25
